test system: Oryza sativum; test: Pre-emergence herbicidal evaluation, ORYSA; assay type: in vivo; conditions: 0.400 kg/ha, three weeks after treatment
Attribute: phytotoxicity rating ORYSA
Reported Endpoint: phytotoxicity rating ORYSA

| Structure String | Reported Result |
| --- | --- |
| CCc1nnc(OCC(=O)N(C)C2=CC(C)(C)CC(C)=C2)s1 | 4 (4 - Injury) |
| CC1=CC(N(C)C(=O)COc2nnc(C(F)(F)F)s2)=CC(C)(C)C1 | 6 (6 - Herbicidal effect) |
| CCN(C(=O)COc1nnc(C(F)(F)C(F)(F)F)s1)C1=CC(C)(C)CC(C)=C1 | 0 (0 - No effect) |
| CC1=CC(N(C)C(=O)COc2nc3ccccc3o2)=CC(C)(C)C1 | 2 (2 - Slight effect) |
| CCN(C(=O)COc1nnc(C(F)(F)F)s1)C1=CC(C)(C)CC(C)=C1 | 3 (3 - Moderate effect) |
| CC1=CC(N(C)C(=O)COc2nnc(C(F)(F)C(F)(F)F)s2)=CC(C)(C)C1 | 0 (0 - No effect) |
| CCc1nnc(OCC(=O)N(C2=CC(C)(C)CC(C)=C2)C(C)C)s1 | 4 (4 - Injury) |
| CC1=CC(N(C(=O)COc2nc3ccccc3o2)C(C)C)=CC(C)(C)C1 | 4 (4 - Injury) |
| CC1=CC(N(C(=O)COc2nnc(C(F)(F)F)s2)C(C)C)=CC(C)(C)C1 | 5 (5 - Definite injury) |
| CCc1nnc(OCC(=O)N(CC)C2=CC(C)(C)CC(C)=C2)s1 | 3 (3 - Moderate effect) |
| CCN(C(=O)COc1nc2ccccc2o1)C1=CC(C)(C)CC(C)=C1 | 0 (0 - No effect) |

----------
Attribute: phytotoxicity rating LOLPE
tested on: Lolium perenne; assay: Post-emergence herbicidal evaluation, LOLPE; conditions: 0.200 kg/ha, three weeks after treatment

| Structure String | phytotoxicity rating LOLPE |
| --- | --- |
| CC1=CC(N(C(=O)COc2nc3ccccc3o2)C(C)C)=CC(C)(C)C1 | 7 (7 - Good herbicidal effect) |
| CCc1nnc(OCC(=O)N(CC)C2=CC(C)(C)CC(C)=C2)s1 | 0 (0 - No effect) |
| CC1=CC(N(C)C(=O)COc2nnc(C(F)(F)C(F)(F)F)s2)=CC(C)(C)C1 | 6 (6 - Herbicidal effect) |
| CCc1nnc(OCC(=O)N(C)C2=CC(C)(C)CC(C)=C2)s1 | 1 (1 - Trace effect) |
| CCc1nnc(OCC(=O)N(C2=CC(C)(C)CC(C)=C2)C(C)C)s1 | 5 (5 - Definite injury) |
| CC1=CC(N(C(=O)COc2nnc(C(F)(F)F)s2)C(C)C)=CC(C)(C)C1 | 7 (7 - Good herbicidal effect) |
| CCN(C(=O)COc1nnc(C(F)(F)F)s1)C1=CC(C)(C)CC(C)=C1 | 8 (8 - Approaching complete kill) |
| CCN(C(=O)COc1nc2ccccc2o1)C1=CC(C)(C)CC(C)=C1 | 7 (7 - Good herbicidal effect) |
| CCN(C(=O)COc1nnc(C(F)(F)C(F)(F)F)s1)C1=CC(C)(C)CC(C)=C1 | 7 (7 - Good herbicidal effect) |
| CC1=CC(N(C)C(=O)COc2nc3ccccc3o2)=CC(C)(C)C1 | 6 (6 - Herbicidal effect) |
| CC1=CC(N(C)C(=O)COc2nnc(C(F)(F)F)s2)=CC(C)(C)C1 | 7 (7 - Good herbicidal effect) |

Data provenance: patent US6339042B1
